- Tested System: Geranylgeranyl transferase type I (Homo sapiens, UniProt P49354+P53609)
- Assay Details: Inhibition of Geranylgeranyl transferase type I from porcine brain tissue
- Parameters: species or system Sus scrofa
- Conditions Used: target entry is the homologue from another species; read-out: I50
Recorded Metric: pIC50
Interpret pIC50 as the negative base-10 log of the concentration measured in mol/L.

See these solved cases before continuing.
CC(C)=CCC/C(C)=C/CC/C(C)=C/CP(=O)(O)OCC(=O)N[C@H](C(=O)N[C@@H](CC(C)C)C(=O)N[C@@H](CO)C(=O)O)C(C)C: 4.23
CSCC[C@H](NC(=O)[C@@H](NC(=O)[C@@H](NC(=O)COP(=O)(O)C/C=C(\C)CC/C=C(\C)CCC=C(C)C)C(C)C)C(C)C)C(=O)O: 5.00

With those in mind, consider the next compound.
Data point: CSCC[C@H](NC(=O)[C@@H](NC(=O)[C@@H](NC(=O)CCP(=O)(O)C/C=C(\C)CC/C=C(\C)CCC=C(C)C)C(C)C)C(C)C)C(=O)O ; pIC50 = 4.68
